Ref: patent US11401256B2

Target: h-Cereblon_DDB1 (hCereblon(M1-L442)_hDDB1(M1-H1140)) (Homo sapiens (Human), UniProt Q96SW2)
Sequence (Q96SW2 whole entry): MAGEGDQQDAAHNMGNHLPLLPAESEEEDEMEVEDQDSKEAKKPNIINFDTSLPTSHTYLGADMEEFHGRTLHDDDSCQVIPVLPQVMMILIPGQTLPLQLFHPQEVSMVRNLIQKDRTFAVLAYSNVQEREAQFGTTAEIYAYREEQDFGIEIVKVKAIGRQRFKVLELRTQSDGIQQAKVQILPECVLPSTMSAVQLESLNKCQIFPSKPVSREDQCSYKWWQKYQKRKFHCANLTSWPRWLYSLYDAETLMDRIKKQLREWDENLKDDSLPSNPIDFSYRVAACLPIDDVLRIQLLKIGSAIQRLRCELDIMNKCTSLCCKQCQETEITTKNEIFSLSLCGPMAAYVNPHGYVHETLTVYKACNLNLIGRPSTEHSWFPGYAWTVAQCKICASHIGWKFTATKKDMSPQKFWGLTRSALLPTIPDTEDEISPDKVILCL
Sequence (Q16531 whole entry partner): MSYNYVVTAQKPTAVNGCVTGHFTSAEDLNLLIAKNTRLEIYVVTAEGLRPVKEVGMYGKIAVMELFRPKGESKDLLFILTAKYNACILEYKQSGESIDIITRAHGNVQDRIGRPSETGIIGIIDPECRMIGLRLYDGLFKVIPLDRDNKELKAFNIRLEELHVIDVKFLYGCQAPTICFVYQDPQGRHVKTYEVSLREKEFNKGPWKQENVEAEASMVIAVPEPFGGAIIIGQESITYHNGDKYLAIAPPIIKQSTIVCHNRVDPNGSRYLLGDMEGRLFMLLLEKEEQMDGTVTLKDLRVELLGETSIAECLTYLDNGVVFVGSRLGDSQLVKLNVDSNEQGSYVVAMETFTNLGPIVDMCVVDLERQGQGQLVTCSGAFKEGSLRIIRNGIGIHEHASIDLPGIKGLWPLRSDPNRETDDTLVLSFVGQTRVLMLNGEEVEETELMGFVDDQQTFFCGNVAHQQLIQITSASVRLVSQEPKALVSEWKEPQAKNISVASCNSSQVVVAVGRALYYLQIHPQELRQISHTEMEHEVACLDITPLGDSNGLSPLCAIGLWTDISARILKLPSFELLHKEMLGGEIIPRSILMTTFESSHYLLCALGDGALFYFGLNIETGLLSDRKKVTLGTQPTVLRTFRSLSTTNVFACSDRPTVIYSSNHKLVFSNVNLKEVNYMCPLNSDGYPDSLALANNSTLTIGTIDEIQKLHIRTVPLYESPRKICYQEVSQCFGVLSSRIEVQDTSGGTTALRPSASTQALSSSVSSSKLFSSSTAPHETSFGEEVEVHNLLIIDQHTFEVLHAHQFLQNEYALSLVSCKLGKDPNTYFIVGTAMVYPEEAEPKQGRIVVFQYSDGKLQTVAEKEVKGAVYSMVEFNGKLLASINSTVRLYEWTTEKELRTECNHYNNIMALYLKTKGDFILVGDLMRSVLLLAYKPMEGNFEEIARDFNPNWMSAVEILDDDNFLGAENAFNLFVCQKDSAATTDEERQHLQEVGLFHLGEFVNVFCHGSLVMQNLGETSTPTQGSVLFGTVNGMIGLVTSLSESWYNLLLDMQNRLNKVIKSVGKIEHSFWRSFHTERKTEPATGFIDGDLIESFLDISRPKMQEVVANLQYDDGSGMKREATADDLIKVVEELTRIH
Experiment: Fluorescence direct binding (tryptophan fluorescence titration)
Conditions: 20° C., excitation 280 nm, emission 340 nm, 1:1 protein-ligand complex; read-out: Fluorescence h-Cereblon_DDB1 Mean Kd_EQ
Endpoint label: Kd (µM)
Answers are plain numbers, in µM.

Examples from the recorded data:
- Compound: "CNC(=O)c1ccc2c(c1)nc(Cc1ccc(C(F)(F)F)cc1OC)n2-c1ccc2c(c1)CCC(=O)N2"
  Endpoint label: "Kd"
  Reported measurement: 0.017
- Compound: "CNC(=O)c1ccc2c(c1)nc(C(C)C)n2-c1ccc2c(c1)CNC(=O)N2"
  Endpoint label: "Kd"
  Reported measurement: 0.12
- Compound: "CC(C)c1nc2ccccc2n1-c1ccc2c(c1)CNC(=O)N2"
  Endpoint label: "Kd"
  Reported measurement: 0.171
- Compound: "Cc1sc2c(c1C)C(c1ccc(Cl)cc1)=N[C@@H](CC(=O)NCCCCCCCCCCNC(=O)c1ccc3c(c1)nc(-c1cc(-c4cncn4C)nc4ccccc14)n3-c1ccc3c(c1)CCC(=O)N3)c1nnc(C)n1-2"
  Endpoint label: "Kd"
  Reported measurement: 0.338
- Compound: "CNC(=O)c1ccc2c(c1)nc(-c1cccc(OC)n1)n2-c1ccc2c(c1)CCC(=O)N2"
  Endpoint label: "Kd"
  Reported measurement: 0.015
- Compound: "CNC(=O)c1ccc2c(c1)nc(CO)n2-c1ccc2c(c1)CCC(=O)N2"
  Endpoint label: "Kd"
  Reported measurement: 0.011

Would you mind listing Kd for each of the following compounds?
1. CC(=O)N1CCC(NC(=O)c2ccc3c(c2)CCC(=O)N3)CC1
2. Cc1sc2c(c1C)C(c1ccc(Cl)cc1)=N[C@@H](CC(=O)NCCOCCOCCNC(=O)c1ccc3c(c1)nc(-c1cc(-c4cncn4C)nc4ccccc14)n3-c1ccc3c(c1)CCC(=O)N3)c1nnc(C)n1-2

Reply:
1: 0.041; 2: 0.524

Would you mind listing Kd for each of the following compounds?
1. COC(=O)c1ccc(Nc2ccc3c(c2)CCC(=O)N3)cc1
2. CNC(=O)c1ccc2c(c1)nc(-c1cc(-c3cncn3C)nc3ccccc13)n2-c1ccc2c(c1)CCC(=O)N2
3. O=C1CCc2ccc(-n3ccnc3)cc2N1
4. O=C1CCc2cc(C(=O)N3CCc4cccnc43)cnc2N1
5. COC(=O)c1ccc2c(c1)nc(-c1ccnc(OC)c1)n2-c1ccc2c(c1)CCC(=O)N2

Reply:
[0.03, 0.04, 0.016, 0.003, 0.004]

Would you mind listing Kd for each of the following compounds?
1. O=C1CCc2cc(NC(=O)C3CCCc4ccccc43)cnc2N1 (racemic)
2. O=C1CCc2cc(C(=O)N3CCCc4ccccc43)cnc2N1
3. CNC(=O)c1ccc2c(c1)nc(-c1cc(OC)ccc1F)n2-c1ccc2c(c1)CCC(=O)N2
4. CNC(=O)c1ccc2c(c1)nc(-c1cc(OC)ccc1C)n2-c1ccc2c(c1)CCC(=O)N2

Reply:
1: 0.004; 2: 0.001; 3: 0.014; 4: 0.045

----------
Biological target: h-Cereblon_DDB1 (hCereblon(M1-L442)_hDDB1(M1-H1140)) (Homo sapiens (Human))
Experiment: Fluorescence direct binding (tryptophan fluorescence titration)
Details: 20° C., excitation 280 nm, emission 340 nm, 1:1 protein-ligand complex; read-out: Fluorescence h-Cereblon_DDB1 Mean Kd_EQ
pKd: −log10 of the molar value.
Mark 0.0 for pKd values under 7, and 1.0 for everything at or above.

- Smiles string: "CNC(=O)c1ccc2c(c1)nc(-c1ccnc(OC)c1)n2-c1cnc2c(c1)CCC(=O)N2"
  Answer label: 1.0
- Smiles string: "O=C1CCc2cc(-n3ccnc3)cnc2N1"
  Answer label: 1.0
- Smiles string: "Cc1sc2c(c1C)C(c1ccc(Cl)cc1)=N[C@@H](CC(=O)NCCCCCNC(=O)c1ccc3c(c1)nc(-c1cc(-c4cncn4C)nc4ccccc14)n3-c1ccc3c(c1)CCC(=O)N3)c1nnc(C)n1-2"
  Answer label: 0.0
- Smiles string: "O=C1CCc2cc(C(=O)N3CCc4cccnc43)ccc2N1"
  Answer label: 1.0

Ask: Check the entry "CNC(=O)c1ccc2c(c1)nc(-c1cc(OC)ncc1F)n2-c1ccc2c(c1)CCC(=O)N2" : does pKd equal or exceed 7?
Reply: 1.0

Ask: Check the entry "Cn1cncc1-c1cc(C(=O)Nc2ccc3c(c2)CCC(=O)N3)c2ccccc2n1" : does pKd equal or exceed 7?
Reply: 0.0

Ask: Check the entry "CNC(=O)c1ccc2c(c1)nc(-c1ccc(OC)nc1)n2-c1ccc2c(c1)CCC(=O)N2" : does pKd equal or exceed 7?
Reply: 1.0
